# Experimental details: NCI Yeast Anticancer Drug Screen. Data for the wt2 strain (AID 169);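 further: 0% = growth of vehicle-treated yeast cultures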
# Settings: S. cerevisiae wt2 strain growth inhibition; at 11.0 µM; hits give high values
This is part of a sample that, as a whole, favours compounds with a hit. Of some 79,000 tested, about 15% had one in any assay. Active and inactive are the calls of the source. No stated cut-off is given here; in the data, active means growth inhibition above about 70%; inactive means the rest.
Could you please report measured growth inhibition for the items listed next?

Examples with answers:
INSERT INTO measurements (structure_as_smiles, test_readout, assay_result) VALUES
  ('COc1cc(/C=C2\NC(=O)N(/C=C3\C(=O)Oc4ccccc4C3=O)C2=O)ccc1O', 'growth inhibition', '7% (inactive)'),
  ('O=c1c2ccccc2nc(-c2ccccc2)n1O', 'growth inhibition', '96% (active)'),
  ('Cc1ccccc1N=C(NO)c1ccccc1', 'growth inhibition', '-4% (inactive)'),
  ('CCCCOCn1c(=O)[nH]c(=O)c2cc(Br)ccc21', 'growth inhibition', '-21% (inactive)'),
  ('CCC(C)(C)c1ccc(Oc2cccc(C(=O)O)c2)cc1', 'growth inhibition', '7% (inactive)');

Exercise: Name the reported growth inhibition value associated with the molecule "COC(=O)/C=C(/CC(=O)OC)C(=O)OC"
Solution: 0% (inactive)

----------
# Experimental details: NCI Yeast Anticancer Drug Screen. Data for the mec2-1 strain (AID 157)
# Settings: S. cerevisiae mec2-1 strain, at 5.0 µM (retest, dose inferred, filed as 0.5)
The panel holds about 79,000 compounds, 15% with a hit somewhere; the sample as a whole holds those more often. The source made the active and inactive calls. No stated cut-off is given here; in the data, active means growth inhibition above about 70%; inactive means the rest.
Please reply with one of these outcomes: T for active, F for inactive

INSERT INTO results (compound, class_name) VALUES
  ('Cc1ccccc1N=C(NO)c1ccccc1', 'F'),
  ('CN(C)[C@@H]1C(=O)C(C(N)=O)=C(O)[C@@]2(O)C(=O)C3=C(O)c4c(O)cccc4C[C@H]3C[C@@H]12', 'T'),
  ('O=[N+]([O-])c1cc(Cl)cnc1Br', 'F'),
  ('CCn1c(O)c(C=Nc2ccccc2)s/c1=N/Nc1nc(-c2ccccc2)cs1', 'F');

Exercise: Could you kindly confirm the outcome this assay logged for "Clc1ccc(NCNC2Nc3ccccc3N2)cc1Cl" ?
Solution: F

Exercise: Outcome? c1ccc2c(OCC3CO3)cccc2c1 (stereo not given)
Solution: F

Exercise: Outcome logged for "CCCCCCCCCCCCCCCCCC(=O)NCCCN(C)C" in this assay:
Solution: F

Exercise: What classification did "CCOC(=O)c1cc([N+](=O)[O-])c(Sc2ncnc3nc[nH]c23)c([N+](=O)[O-])c1" end up with in this test?
Solution: F

Exercise: What call does the record list for "CN(C)Cc1cc(N=Nc2ccc(Cl)cc2)ccc1OC(=O)c1ccccc1" ?
Solution: F

Exercise: I'd appreciate the recorded outcome for "CCCC/C([O-])=C1/C(=O)N(c2ccccc2)N=C1C.CCCC/C([O-])=C1/C(=O)N(c2ccccc2)N=C1C.[Cu+2]" from this test.
Solution: F

----------
# Experimental details: NCI Yeast Anticancer Drug Screen. Data for the mgt1 strain (AID 153)
# Settings: S. cerevisiae mgt1 mutant growth inhibition; at 1.2 µM; hits give high values
# Procedure: Growth inhibition of yeast strains with defined genetic alterations is measured as a screen for potential anti-cancer activity. Selected strains with alterations in DNA damage repair or cell cycle control were exposed to compounds and growth inhibition was measured relative to vehicle treated controls. The strain used in this assay is mgt1
The panel holds about 79,000 compounds, 15% with a hit somewhere; the sample as a whole holds those more often.
Test readout: growth inhibition (%)
Give bare numbers, in %.

Please review the entries below; each comes with its answer.
INSERT INTO results (molecule, test_readout, assay_result) VALUES
  ('Cc1cc(C)c(NC(=S)NC(=O)c2ccccc2)cc1C', 'growth inhibition', -57),
  ('O=C(O)c1ccccc1/C=N/N=C1c2ccccc2-c2ccccc21', 'growth inhibition', -1),
  ('NCCNCCNc1ccc(NCCNCCN)c2c1C(=O)c1c(O)ccc(O)c1C2=O', 'growth inhibition', -2);

Next up:
Exercise: Could you share which growth inhibition value was measured for CC(=O)OC1CCC2(C)C(=CC(C3C=C4CC(OC(C)=O)CCC4(C)C4=C3C3CC5OC6(CCC(C)CO6)C(C)C5C3(C)CC4)C3=C2CCC2(C)C3CC3OC4(CCC(C)CO4)C(C)C32)C1 (centres undefined) ?
Solution: 1
